# System: Staphylococcus aureus
# experiment-notes: Antibacterial activity against tarO deficient Staphylococcus aureus RN4220 assessed as cell survival at 100 uM after 12 hrs by optical density plate reader method
# Assay type: functional
# test-context: RN4220, 12 h
Would you kindly list survival at 100 µM for each of these molecules?

### Prompt Lab note: need survival at 100 µM with Staphylococcus aureus for entry Cc1ccc(-c2c3c(=O)n(C)c(=O)n(C)c3c3n2-c2ccccc2NC3c2ccc(C#N)cc2)cc1 (stereo not drawn) , please look it up.
### Response 81%

### Prompt Lab note: need survival at 100 µM with Staphylococcus aureus for entry COc1ccc(C2Nc3ccccc3-n3c(-c4ccccc4)c4c(=O)n(C)c(=O)n(C)c4c32)cc1 (stereo not drawn) , please look it up.
### Response 81%

### Prompt Lab note: need survival at 100 µM with Staphylococcus aureus for entry Cn1c(=O)c2c(-c3ccccc3)n3c(c2n(C)c1=O)C(c1cc(Cl)ccc1O)Nc1ccccc1-3 (stereo not drawn) , please look it up.
### Response 78%
